The measured values listed here are drawn from patent US20230322908A1.

Molecular target: T1, recombinant human full-length TDP-43 (TAR DNA-binding protein 43), soluble (human, UniProt Q13148 1-414)
T1 construct: Used on Luminex beads, coated on ELISA plates, and immobilized or injected in SPR; also called FL TDP-43; TDP-43 protein
T1 sequence (Q13148 whole entry): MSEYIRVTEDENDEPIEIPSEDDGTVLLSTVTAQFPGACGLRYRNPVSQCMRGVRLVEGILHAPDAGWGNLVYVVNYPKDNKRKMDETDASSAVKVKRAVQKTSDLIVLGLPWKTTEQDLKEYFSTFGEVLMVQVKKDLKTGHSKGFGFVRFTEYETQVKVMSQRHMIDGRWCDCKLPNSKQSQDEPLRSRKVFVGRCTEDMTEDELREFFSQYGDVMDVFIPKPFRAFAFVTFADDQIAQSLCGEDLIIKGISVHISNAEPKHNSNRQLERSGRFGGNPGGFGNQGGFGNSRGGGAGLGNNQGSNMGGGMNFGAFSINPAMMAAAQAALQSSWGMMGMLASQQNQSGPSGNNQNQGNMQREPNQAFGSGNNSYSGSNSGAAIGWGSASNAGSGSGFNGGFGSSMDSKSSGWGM
Assay: SPR 8K, immobilized soluble TDP-43; IgG1
RECORDED METRIC: pKd
Note on pKd: it is the negative log10 of concentration, concentration in mol/L.

Summary for this binder, hACI-7069-633B12-Ab1_H23L20 (IgG1) (antibody, V domains shown, Human IgG1 / kappa) VH: QVQLVQSGAEVKKPGASVKVSCKTSGFTFTEYSMHWVRQAPGQRLEWIGGINPGNGGTSYNQKFKGRVTITVDTSASTAYMELSSLRSEDTAVYYCARESWGQGTTVTVSS VL: DVVMTQSPLSLPVTLGQPASISCKSSQSLLHSDGKTYLNWLQQRPGQSPRRLIYLVSKLDSRVPDRFSGSGSGTDFTLKISRVEAEDLGVYYCWQGTHFPHTFGQGTKLEIK : pKd is 9.84
